Recorded GI50 by entry
tested on: NCI-H460; test: Cytotoxicity against human H460 cells after 48 hrs by SRB assay; assay type: functional; conditions: NCI-H460, 48 h
Your answer should be a plain number; it is taken to be in µM.

*Q* # GI50 lookup, item C=C1CCCC(C)(C)C1CCC1(C)C=Cc2cc(O)cc(OC)c2O1 (stereo not given) [METACHROMIN U]
*A* 37

*Q* Subsequent entry: CN[C@@H]1C[C@H]2O[C@@](C)([C@@H]1OC)n1c3ccccc3c3c4c(c5c6ccccc6n2c5c31)C(=O)NC4 [STAUROSPORINE]
*A* 3.6

*Q* Subsequent entry: C=C1CCCC(C)(C)C1CCc1ccc2c(c1)C(=O)C=C(OC)C2=O (stereo not given) [METACHROMIN W]
*A* 50

*Q* Subsequent entry: CC(=O)O[C@H]1C(=O)[C@@]2(C)[C@H]([C@H](OC(=O)c3ccccc3)[C@]3(O)C[C@H](OC(=O)[C@H](O)[C@@H](NC(=O)c4ccccc4)c4ccccc4)C(C)=C1C3(C)C)[C@]1(OC(C)=O)CO[C@@H]1C[C@@H]2O [PACLITAXEL]
*A* 0.024

*Q* Subsequent entry: C=C1CCCC(C)(C)C1CC/C(C)=C/Cc1cc(O)ccc1O (stereo not given) [METACHROMIN V]
*A* 5.1
